- Assay system: human TLR7 (Homo sapiens (Human), UniProt Q9NYK1)
- Sequence (Q9NYK1 27-1049): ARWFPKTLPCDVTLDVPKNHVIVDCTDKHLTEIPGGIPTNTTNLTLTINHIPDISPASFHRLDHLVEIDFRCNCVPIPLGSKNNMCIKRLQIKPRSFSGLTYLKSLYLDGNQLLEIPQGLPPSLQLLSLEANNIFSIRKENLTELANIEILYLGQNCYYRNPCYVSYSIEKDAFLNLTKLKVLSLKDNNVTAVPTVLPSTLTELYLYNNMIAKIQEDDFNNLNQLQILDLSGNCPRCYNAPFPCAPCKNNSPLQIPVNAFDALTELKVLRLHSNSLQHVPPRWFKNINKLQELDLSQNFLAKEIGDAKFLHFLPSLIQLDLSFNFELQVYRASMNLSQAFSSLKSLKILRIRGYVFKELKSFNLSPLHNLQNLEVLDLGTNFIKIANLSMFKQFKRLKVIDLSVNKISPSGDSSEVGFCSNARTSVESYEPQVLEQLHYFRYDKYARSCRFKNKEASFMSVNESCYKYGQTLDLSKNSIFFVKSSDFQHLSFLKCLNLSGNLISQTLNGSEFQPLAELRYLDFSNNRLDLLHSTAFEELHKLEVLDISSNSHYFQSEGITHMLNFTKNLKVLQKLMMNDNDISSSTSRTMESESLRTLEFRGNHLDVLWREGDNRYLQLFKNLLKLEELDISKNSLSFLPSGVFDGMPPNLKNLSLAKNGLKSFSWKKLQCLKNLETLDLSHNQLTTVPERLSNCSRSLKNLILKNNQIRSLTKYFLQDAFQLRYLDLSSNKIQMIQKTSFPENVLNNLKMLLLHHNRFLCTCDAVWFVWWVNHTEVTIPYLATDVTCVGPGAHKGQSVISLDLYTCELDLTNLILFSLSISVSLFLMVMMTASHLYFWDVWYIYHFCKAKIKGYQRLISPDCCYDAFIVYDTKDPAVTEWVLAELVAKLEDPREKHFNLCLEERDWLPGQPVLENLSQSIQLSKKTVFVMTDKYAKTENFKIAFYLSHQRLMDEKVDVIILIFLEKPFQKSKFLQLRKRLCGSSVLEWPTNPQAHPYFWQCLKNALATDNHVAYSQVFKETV
- Method notes: Test for evaluating the inhibition of the activation of human TLR7 (SEAP reporter, TLR7/NF-κB/SEAPorter HEK293 cell)
- Test conditions: R-848 200 nmol/L, SEAP reporter
Reported endpoint: IC50 (nM)

> print(dat)
                                   compound                              assay.system  reported.endpoint  unit.text  assay.result
1  CCOc1nc(C)c2nc(-c3cncc(F)c3)n(Cc3ccc(CN(CC)CC)cc3)c2n1  human TLR7 (Homo sapiens (Human), UniProt Q9NYK1)               IC50         nM            29
2  CCOc1nc(N)c2nc(-c3cncc(C)c3)n(Cc3ccc(CN(C)C)cc3)c2n1  human TLR7 (Homo sapiens (Human), UniProt Q9NYK1)               IC50         nM           820
3  COc1nc(C)c2nc(-c3ccncc3)n(Cc3ccc(C4CN5CCC4CC5)cc3F)c2n1 (centres unmarked)  human TLR7 (Homo sapiens (Human), UniProt Q9NYK1)               IC50         nM            35
4  CCOc1nc(C)c2nc(-c3cncc(F)c3)n(Cc3ccccc3OC)c2n1  human TLR7 (Homo sapiens (Human), UniProt Q9NYK1)               IC50         nM           209
5  Cc1nc(O)nc2c1nc(-c1cncc(F)c1)n2Cc1ccc(C2CN3CCC2CC3)cc1F (centres unmarked)  human TLR7 (Homo sapiens (Human), UniProt Q9NYK1)               IC50         nM          2040
6  CCOc1nc(C)c2nc(-c3cncc(F)c3)n(Cc3ncc(C4CN5CCC4CC5)cc3F)c2n1 (centres unmarked)  human TLR7 (Homo sapiens (Human), UniProt Q9NYK1)               IC50         nM           506
7  CCOc1nc(N)c2nc(-c3cncc(F)c3)n(Cc3ccc([C@@H]4CN5CCC4CC5)cc3)c2n1  human TLR7 (Homo sapiens (Human), UniProt Q9NYK1)               IC50         nM            94
8  CCOc1nc(C)c2nc(-c3cncc(F)c3)n(Cc3cnn(C4CN5CCC4CC5)c3)c2n1 (centres unmarked)  human TLR7 (Homo sapiens (Human), UniProt Q9NYK1)               IC50         nM           110

---

- Assay system: human TLR7 (Homo sapiens (Human), UniProt Q9NYK1)
- Method notes: Test for evaluating the inhibition of the activation of human TLR7 (SEAP reporter, TLR7/NF-κB/SEAPorter HEK293 cell)
- Test conditions: R-848 200 nmol/L, SEAP reporter
Attribute: IC50
Reported endpoint: IC50 (µM)

> print(dat)
                                    molecule  unit.text  assay.result
 1  CCOc1nc(N)c2nc(-c3cncc(F)c3)n(Cc3ccc(OC4CCN(C)CC4)nc3)c2n1 [Example 60]         µM          0.23
 2  COc1nc(C)c2nc(-c3cncc(F)c3)n(Cc3ccc(OS(C)(=O)=O)cc3F)c2n1 [Example 342]         µM         0.816
 3  CCCCOc1nc(N)c2nc(-c3cccc(OC)c3)n(Cc3ccccc3)c2n1 [Example 12]         µM           9.2
 4  CCCCN(C)c1nc(N)c2nc(-c3cncc(F)c3)n(Cc3ccc(CN(C)C)cc3)c2n1 [Example 155]         µM           8.1
 5  CCCCOc1nc(N)c2nc(-c3cncc(F)c3)n(Cc3ccccc3)c2n1 [Example 1]         µM           2.3
 6  COc1nc(C)c2nc(-c3cncc(F)c3)n(Cc3ccc(CC4CCN(C)CC4)cc3F)c2n1 [Example 283]         µM         0.021
 7  CCCCOc1nc(N)c2nc(-c3ccncc3)n(Cc3ccccc3)c2n1 [Example 4]         µM           7.8
 8  Cc1nc(O)nc2c1nc(-c1cncc(F)c1)n2Cc1ccc(C2=CN3CCC2CC3)c(F)c1 [Example 358]         µM         0.018
 9  COc1nc(C)c2nc(-c3cncc(F)c3)n(Cc3cccc(C4=CN5CCC4CC5)c3)c2n1 [Example 364]         µM         0.011
10  CCOc1nc(C)c2nc(-c3cncc(F)c3)n(Cc3cnn(CC4COCCN4)c3)c2n1 (stereo not shown) [Example 427]         µM         0.028
11  CCOc1nc(C)c2nc(-c3cncc(F)c3)n(Cc3cnn(CC4CCCNC4)c3)c2n1 (stereo not shown) [Example 269]         µM         0.019
12  CCNc1nc(N)c2nc(-c3cncc(F)c3)n(Cc3ccc(CN(C)C)cc3)c2n1 [Example 117]         µM             7
13  COCCOc1nc(N)c2nc(-c3cncc(OC)c3)n(Cc3ccccc3)c2n1 [Example 24]         µM          13.7

---

- Assay system: human TLR7 (Homo sapiens (Human), UniProt Q9NYK1)
- Method notes: Test for evaluating the inhibition of the activation of human TLR7 (SEAP reporter, TLR7/NF-κB/SEAPorter HEK293 cell)
- Test conditions: R-848 200 nmol/L, SEAP reporter
Reported endpoint: IC50 (µM)

> print(dat)
                                    compound                              assay.system  unit.text  assay.result
 1  CCOc1nc(C)c2nc(-c3cncc(F)c3)n(Cc3cnn(CC4CNCCO4)c3)c2n1 (stereo not shown) [Example 424]  human TLR7 (Homo sapiens (Human), UniProt Q9NYK1)         µM           0.1
 2  CCOc1nc(N)c2nc(-c3cncc(F)c3)n(Cc3ccc(CN4CCC(F)(F)CC4)cc3)c2n1  human TLR7 (Homo sapiens (Human), UniProt Q9NYK1)         µM         0.146
 3  COc1nc(C)c2nc(-c3cccnc3)n(Cc3ccc(C4CCNCC4)cc3F)c2n1  human TLR7 (Homo sapiens (Human), UniProt Q9NYK1)         µM         0.036
 4  COc1nc(C)c2nc(-c3cncc(F)c3)n(Cc3ccc(C4CN5CCC4CC5)cc3)c2n1 (stereo not shown)  human TLR7 (Homo sapiens (Human), UniProt Q9NYK1)         µM         0.016
 5  COc1nc(C)c2nc(-c3cncc(C#N)c3)n(Cc3ccc(C4CCN(C)CC4)cc3F)c2n1  human TLR7 (Homo sapiens (Human), UniProt Q9NYK1)         µM         0.062
 6  CCOc1nc(N)c2nc(-c3cncc(F)c3)n(Cc3ccc(C4CCN(C5COC5)CC4)cc3)c2n1  human TLR7 (Homo sapiens (Human), UniProt Q9NYK1)         µM         0.085
 7  CCOc1nc(C)c2nc(-c3cncc(F)c3)n(Cc3ccc(C4CN5CCC4CC5)nc3C(F)(F)F)c2n1 (stereo not shown)  human TLR7 (Homo sapiens (Human), UniProt Q9NYK1)         µM          1.39
 8  CCOc1nc(C)c2nc(-c3cncc(F)c3)n(Cc3cnn(CC4COCCN4C)c3)c2n1 (stereo not shown)  human TLR7 (Homo sapiens (Human), UniProt Q9NYK1)         µM           0.1
 9  CCCCOc1nc(N)c2nc(-c3cncc(F)c3)n(Cc3cccc(C(=O)N4CCN(C)CC4)c3)c2n1  human TLR7 (Homo sapiens (Human), UniProt Q9NYK1)         µM           3.5
10  CCCCOc1nc(N)c2nc(-c3cncc(F)c3)n(Cc3ccc(CN4CCOCC4)cc3)c2n1  human TLR7 (Homo sapiens (Human), UniProt Q9NYK1)         µM           1.3
11  CCCCOc1nc(N)c2nc(-c3ccccc3)n(Cc3cccnc3)c2n1  human TLR7 (Homo sapiens (Human), UniProt Q9NYK1)         µM          12.8
12  COc1nc(C)c2nc(-c3cncc(F)c3)n(Cc3cc(C4CN5CCC4CC5)ccc3F)c2n1 (stereo not shown)  human TLR7 (Homo sapiens (Human), UniProt Q9NYK1)         µM         0.017
13  COc1nc(N)c2nc(-c3cncc(F)c3)n(Cc3ccc(CN4C[C@@H]5C[C@H]4CN5C)cc3)c2n1  human TLR7 (Homo sapiens (Human), UniProt Q9NYK1)         µM         0.028
